System: 695427-040-R-J1-PDC complex spheroids, viability percent T/C;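 note: spheroids exposed to compounds for seven days before readout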
assay.explanation: Anticancer human tumor 695427-040-R-J1-PDC patient-derived colon adenocarcinoma cell line growth inhibition [GQUAD]
experimental.parameters: second compound 0.0316 µM; first compound 0.0316 µM; active compounds read low
measured.metric: viability, T/C

Example compounds with recorded viability, T/C:
CC(C)(O)C1CCC(Nc2ccc3ncc(-c4cccc(C(F)(F)F)c4)n3n2)CC1 (stereo not given) + CN(C)c1ccc(Nc2c3ccc(NC(=O)CCN4CCCC4)cc3nc3cc(NC(=O)CCN4CCCC4)ccc23)cc1; 102%
CC1COCCN1c1cc(C2(S(C)(=N)=O)CC2)nc(-c2ccnc3[nH]ccc23)n1 (stereo not given) + Cc1cnc(CNC(=O)c2c(=O)c3ccc(N4CCCN(C)CC4)nc3n3c2sc2ccccc23)cn1; 95.6%
Cc1[nH]c2ccccc2c1CCNCc1ccc(/C=C/C(=O)NO)cc1 + Cc1cnc(CNC(=O)c2c(=O)c3ccc(N4CCCN(C)CC4)nc3n3c2sc2ccccc23)cn1; 87.8%
COc1cccc2c1C(=O)c1c(O)c3c(c(O)c1C2=O)CC(O)(C(=O)CO)CC3OC1CC(N)C(O)C(C)O1 (stereo not given) + CN(C)c1ccc(Nc2c3ccc(NC(=O)CCN4CCCC4)cc3nc3cc(NC(=O)CCN4CCCC4)ccc23)cc1; 97%
Nc1ccn(C2OC(CO)C(O)C2(F)F)c(=O)n1 (stereo not given) + CN(C)c1ccc(Nc2c3ccc(NC(=O)CCN4CCCC4)cc3nc3cc(NC(=O)CCN4CCCC4)ccc23)cc1; 88.9%

Form field: viability, T/C recorded for CCCS(=O)(=O)Nc1ccc(F)c(C(=O)c2c[nH]c3ncc(-c4ccc(Cl)cc4)cc23)c1F + CN(C)c1ccc(Nc2c3ccc(NC(=O)CCN4CCCC4)cc3nc3cc(NC(=O)CCN4CCCC4)ccc23)cc1 with 695427-040-R-J1-PDC complex spheroids, viability percent T/C (enter value)
108%

Form field: viability, T/C recorded for CC1COCCN1c1cc(-c2ccnn2C)c2ccnc(-c3ccn[nH]3)c2n1 (stereo not given) + Cc1cnc(CNC(=O)c2c(=O)c3ccc(N4CCCN(C)CC4)nc3n3c2sc2ccccc23)cn1 with 695427-040-R-J1-PDC complex spheroids, viability percent T/C (enter value)
62.7%

Form field: viability, T/C recorded for C=CC(=O)N1CCN(c2nc(=O)n(-c3c(C)ccnc3C(C)C)c3nc(-c4c(O)cccc4F)c(F)cc23)C(C)C1 (stereo not given) + CN(C)c1ccc(Nc2c3ccc(NC(=O)CCN4CCCC4)cc3nc3cc(NC(=O)CCN4CCCC4)ccc23)cc1 with 695427-040-R-J1-PDC complex spheroids, viability percent T/C (enter value)
107%

Form field: viability, T/C recorded for COc1ccc([C@@H](O)c2cc(-c3ncnc4cc(N5CCOCC5)ccc34)c(F)cc2Cl)nn1 + Cc1cnc(CNC(=O)c2c(=O)c3ccc(N4CCCN(C)CC4)nc3n3c2sc2ccccc23)cn1 with 695427-040-R-J1-PDC complex spheroids, viability percent T/C (enter value)
93.2%

Form field: viability, T/C recorded for COc1ncnc(C2CC2)c1-c1ncc2cnn(Cc3ccc(-c4nc(C(F)(F)F)cn4C(C)C)cc3)c2n1 + CN(C)c1ccc(Nc2c3ccc(NC(=O)CCN4CCCC4)cc3nc3cc(NC(=O)CCN4CCCC4)ccc23)cc1 with 695427-040-R-J1-PDC complex spheroids, viability percent T/C (enter value)
101%
